test: Human HepG2 cell viability assay in 384 well format; format: toxicity, cell-based; parameters: dose 125 nL, time 70.5 hour; concentration not given beside the values; details: HepG2 cells, read-out: Inhibition
Listed compounds paired with reported cytotoxicity at 70.5 h
Dear colleague, please return just the value in %, with no unit written.

COc1ccc(-c2c(C)nn3c(=N)c(C#N)n[nH]c23)cc1OC : -15.3
Cc1cc(C)n(-c2ccc(C(=O)NCC(CO)Cc3cccs3)cc2)n1 (stereo not given) : -8
CCN(C)C1COC2(CCN(C(=O)c3ccc4[nH]ccc4c3)CC2)C1 (stereo not given) : -11
O=S(=O)(c1c(Cl)nc2sccn12)N1CCC2(CCNCC2)C1 : -6.41
O=C(c1ccco1)N1CCc2c(COCC3CC3)cncc2C1 : -8.01

## Task Can you share its cytotoxicity at 70.5 h? I mean this compound: O=c1ncn(-c2ccc(F)cc2)c2ncccc12
## Result -6.86

## Task How about Cc1nc(CCCNC(=O)c2coc(CN3CCOCC3)c2)sc1C ?
## Result -0.625

## Task How about O=C(NCC1COC2(CCOCC2)O1)c1csc(-c2cccc(Cl)c2)n1 (stereo not given) ?
## Result -20.8

## Task How about COCCNC(=O)CNC(=O)c1nc(Cc2c(Cl)cccc2Cl)no1 ?
## Result -8.7

## Task How about COc1ccc(Cl)cc1C(=O)NCCNc1cnccn1 ?
## Result -3.57
